TARGET UNDER TEST: 4'-phosphopantetheinyl transferase PptT (Mycobacterium tuberculosis, UniProt O33336)
Sequence (O33336 whole entry): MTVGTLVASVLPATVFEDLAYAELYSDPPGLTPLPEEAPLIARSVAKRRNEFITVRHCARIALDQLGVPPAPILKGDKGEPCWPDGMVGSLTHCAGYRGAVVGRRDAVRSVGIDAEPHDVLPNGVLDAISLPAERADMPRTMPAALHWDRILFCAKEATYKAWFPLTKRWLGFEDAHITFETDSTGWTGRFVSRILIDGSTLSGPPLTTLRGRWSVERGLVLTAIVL
PROTOCOL NOTES: Inhibition of Mycobacterium tuberculosis H37Rv PptT by BpsA-coupled assay
MEASURED METRIC: pIC50
A value of pIC50 is the negative decimal logarithm of a concentration given in moles per litre.

Recorded results for 3 molecules are shown here.
CCNc1cccc(Nc2c(C3CC3)cccc2C2CC2)n1 = 5.08
CCNc1nc(Nc2c(CC)cccc2CC)ccc1F = 5.14
CCc1cccc(CC)c1Nc1cccc(NC)n1 = 4.70

Request: // pIC50 lookup, key: `CCNc1cc(OC)cc(Nc2c(CC)cccc2CC)n1`
Response: 6.14

The reported measurements were obtained from ChEMBL document CHEMBL5360611.
